- Test system: SK-OV-3
- Method notes: NCI DTP in-vitro dose response, Ovarian Cancer
- Assay type: cell-based
Quantity name: CC50

>  <Structure>
O=C1c2ccccc2C(=O)c2c1ccc1nccnc21

>  <CC50>
> 100 µM

$$$$

Form field: reported CC50 of `CCc1nc2ccc3c(c2[nH]1)C(=O)c1ccccc1C3=O`
> 100 µM

----------
- System: MDA-MB-468
- Method notes: NCI DTP in-vitro dose response, Breast Cancer
- Format: cell-based
Quantity name: CC50

What value of measured CC50 is listed for `CCc1nc2ccc3c(c2[nH]1)C(=O)c1ccccc1C3=O` ?
> 100 µM

----------
- Tested on: MALME-3M
- Method notes: in vitro test at 1.0×10^−5 M, Skin cancer cell
- Type: cell-based
- Experimental context: 1.0×10^−5 molal concentration (M)
Quantity name: inhibition effect on cancer cell line (Table 2 value)
Reply: number alone, nothing else.

Reference set, count: 3
>  <Compound>
CC1(C)Nc2ccc3c(c2N1)C(=O)c1ccccc1C3=O

>  <System name>
MALME-3M

>  <Endpoint result>
155.47

$$$$
>  <Compound>
O=C1c2ccccc2C(=O)c2c1ccc1[nH]c(=O)c(=O)[nH]c21

>  <System name>
MALME-3M

>  <Endpoint result>
149.83

$$$$
>  <Compound>
O=C1c2ccccc2C(=O)c2c1ccc1nccnc21 [No. 25, Naphthol-[2,3-f]quinoxaline-7,12-dione]

>  <System name>
MALME-3M

>  <Endpoint result>
180.88

$$$$

// switching to the query compound
Consider the compound shown here: `CCc1nc2ccc3c(c2[nH]1)C(=O)c1ccccc1C3=O` What is its recorded inhibition effect on cancer cell line (Table 2 value)?
56.94

----------
- Test system: OVCAR-5
- Method notes: NCI DTP in-vitro dose response, Ovarian Cancer
- Type: cell-based
CC50: recorded values

>  <Structure>
CCc1nc2ccc3c(c2[nH]1)C(=O)c1ccccc1C3=O

>  <CC50>
> 100 µM

$$$$

Then this molecule:
OVCAR-5 / CC50 / `O=C1c2ccccc2C(=O)c2c1ccc1nccnc21` : value?
> 100 µM

----------
- Test system: IGROV1
- Method notes: NCI DTP in-vitro dose response, Ovarian Cancer
- Format: cell-based
Reported CC50 values for a set of molecules

>  <Molecule>
CCc1nc2ccc3c(c2[nH]1)C(=O)c1ccccc1C3=O [TABLE 4-6]

>  <CC50>
> 100 µM

$$$$

For the molecule shown here, O=C1c2ccccc2C(=O)c2c1ccc1nccnc21 [TABLE 5-6] , give the reported CC50.
> 100 µM

----------
- Tested on: NCI-H522
Quantity name: CC50

Request body: readout CC50, system NCI-H522, query O=C1c2ccccc2C(=O)c2c1ccc1nccnc21 [TABLE 5-2] . Return the value.
> 100 µM

----------
- System: T-47D
- Method notes: NCI DTP in-vitro dose response, Breast Cancer
- Type: cell-based
Quantity name: CC50

Requested read-out: CC50. Entry: `CCc1nc2ccc3c(c2[nH]1)C(=O)c1ccccc1C3=O`
> 100 µM

----------
- Test system: NCI-H226
Quantity name: CC50

Entry `O=C1c2ccccc2C(=O)c2c1ccc1nccnc21` , system NCI-H226: what CC50 was measured?
> 100 µM

----------
- Tested on: SF-295
- Method notes: NCI DTP in-vitro dose response, CNS Cancer
- Assay type: cell-based
Below, each entry is listed alongside its reported CC50.

>  <Compound>
CCc1nc2ccc3c(c2[nH]1)C(=O)c1ccccc1C3=O [TABLE 4-4]

>  <CC50>
> 100 µM

$$$$

Turning now to a further record.
Request body: readout CC50, system SF-295, query O=C1c2ccccc2C(=O)c2c1ccc1nccnc21 [TABLE 5-4] . Return the value.
> 100 µM
